Data provenance: PubChem BioAssay AID1903

- system.tested: Large T antigen (Simian virus 40) (UniProt P03070)
- Sequence (P03070 whole entry, looked up): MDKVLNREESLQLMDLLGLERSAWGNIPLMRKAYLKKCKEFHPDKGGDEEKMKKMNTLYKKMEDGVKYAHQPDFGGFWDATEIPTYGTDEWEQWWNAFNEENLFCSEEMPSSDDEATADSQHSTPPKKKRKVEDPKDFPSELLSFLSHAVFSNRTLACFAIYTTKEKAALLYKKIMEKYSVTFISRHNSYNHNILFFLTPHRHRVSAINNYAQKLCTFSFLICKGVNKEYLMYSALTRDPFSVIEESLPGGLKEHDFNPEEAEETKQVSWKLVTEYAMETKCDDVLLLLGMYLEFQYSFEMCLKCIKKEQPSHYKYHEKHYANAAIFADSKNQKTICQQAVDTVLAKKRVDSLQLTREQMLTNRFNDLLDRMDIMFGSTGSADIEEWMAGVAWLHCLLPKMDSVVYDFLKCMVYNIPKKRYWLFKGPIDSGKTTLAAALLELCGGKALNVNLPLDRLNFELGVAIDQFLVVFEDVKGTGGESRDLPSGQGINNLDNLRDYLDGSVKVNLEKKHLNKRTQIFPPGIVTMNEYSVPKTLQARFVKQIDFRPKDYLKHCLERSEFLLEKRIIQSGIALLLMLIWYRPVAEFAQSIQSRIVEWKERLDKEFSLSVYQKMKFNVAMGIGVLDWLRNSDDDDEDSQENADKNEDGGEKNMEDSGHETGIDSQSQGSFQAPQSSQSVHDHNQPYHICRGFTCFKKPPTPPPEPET
- measurement.protocol: SV40 large T antigen inhibitors, biochemical (AID 1903)
- applied.conditions: SV40 large T antigen ATPase/helicase inhibition assay; at 20 µM; stronger effect = higher value
Among all 310,000 compounds or so, about 1,200 (0.39%) were called active. These entries were drawn from the full list. Measured potencies and affinities stand elsewhere.
This section presents compounds with their documented inhibition values.
State the answer as a number, implicitly in %.

Below, each entry is followed by its recorded inhibition result.
>  <compound>
O=C(O)C1CC=CCC1C(=O)NC1CCCCC1 (stereo unspecified)

>  <value.unit>
%

>  <inhibition>
20.5

$$$$
>  <compound>
Cc1sc2ncnc(Sc3ccccc3C(=O)Nc3ccc(C#N)cc3)c2c1C

>  <value.unit>
%

>  <inhibition>
9.82

$$$$

The compound identified as CCOC(=O)c1c(S(=O)(=O)NCC(=O)Nc2ccc(F)cc2)c(C)n(C)c1C registered its inhibition at 2.6

response.value for COc1ccccc1CNc1nc(S(=O)(=O)c2ccccc2)c(Cl)s1 (field: inhibition) = 21.1

// recorded inhibition for O=C(N=Nc1ccc(NOC(=O)c2ccccc2Br)cc1)c1ccccc1O : 11.6

The measured inhibition associated with COc1ccc(C2(C(=O)Nc3cc(C)on3)CCOCC2)cc1 reads 0.88

Looking up Cc1ccc(-c2nc(CS(=O)CC(=O)NCCN3CCOCC3)c(C)o2)cc1 (stereo unspecified) , I found its inhibition recorded as -1.85

The compound identified as CN(C(=O)C1CCCO1)c1nnc(-c2ccccn2)s1 (stereo unspecified) registered its inhibition at 8.98

// CC1CCN(C(=O)N[C@@H](Cc2ccccc2)C(=O)O)CC1 : inhibition value = 0.13

inhibition recorded for this compound, Cc1ccc(-c2nn(-c3ccccc3)cc2C(N)=O)o1 , is 1

# compound CC(CCc1ccccc1)C(=O)NO (stereo unspecified) ; its inhibition = -1.59
